Target: Phosphatidylinositol 4,5-bisphosphate 3-kinase catalytic subunit delta isoform (Homo sapiens, UniProt O00329)
Sequence (O00329 whole entry): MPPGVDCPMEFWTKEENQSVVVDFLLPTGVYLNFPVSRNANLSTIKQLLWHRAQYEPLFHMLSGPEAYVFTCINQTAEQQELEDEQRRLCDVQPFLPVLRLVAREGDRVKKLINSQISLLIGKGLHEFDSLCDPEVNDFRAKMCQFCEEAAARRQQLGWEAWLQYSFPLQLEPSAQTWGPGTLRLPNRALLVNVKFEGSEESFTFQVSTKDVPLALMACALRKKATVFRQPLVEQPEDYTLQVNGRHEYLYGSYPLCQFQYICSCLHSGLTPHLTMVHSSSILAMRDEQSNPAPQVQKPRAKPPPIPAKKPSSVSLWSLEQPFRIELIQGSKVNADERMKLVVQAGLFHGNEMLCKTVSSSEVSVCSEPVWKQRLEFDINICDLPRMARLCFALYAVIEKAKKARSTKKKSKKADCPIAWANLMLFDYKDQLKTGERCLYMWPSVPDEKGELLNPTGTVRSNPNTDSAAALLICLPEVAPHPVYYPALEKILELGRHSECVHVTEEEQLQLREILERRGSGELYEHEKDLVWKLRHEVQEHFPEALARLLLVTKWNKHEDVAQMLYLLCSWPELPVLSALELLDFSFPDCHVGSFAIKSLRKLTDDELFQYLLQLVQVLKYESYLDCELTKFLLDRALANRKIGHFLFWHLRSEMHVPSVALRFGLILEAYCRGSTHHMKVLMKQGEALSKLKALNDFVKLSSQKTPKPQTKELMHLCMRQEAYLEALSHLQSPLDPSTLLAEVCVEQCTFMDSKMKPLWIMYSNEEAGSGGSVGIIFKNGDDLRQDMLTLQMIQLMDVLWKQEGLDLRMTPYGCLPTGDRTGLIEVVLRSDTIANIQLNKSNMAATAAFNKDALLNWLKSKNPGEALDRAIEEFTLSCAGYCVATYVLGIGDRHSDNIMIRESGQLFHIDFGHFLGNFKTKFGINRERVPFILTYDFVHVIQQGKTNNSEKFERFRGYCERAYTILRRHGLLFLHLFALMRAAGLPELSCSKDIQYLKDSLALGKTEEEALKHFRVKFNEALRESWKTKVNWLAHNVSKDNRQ
Assay: Inhibition of PI3Kdelta (unknown origin) using PIP2 as substrate preincubated for 15 mins followed by substrate addition measured after 60 mins by HTRF method
Consider the following molecules and their measured pIC50 readings.
A value of pIC50 is the negative decimal logarithm of a concentration given in moles per litre.

Illustrative cases are given below, each with its answer.
State its pIC50 for this molecule: COc1ncc(C2=CCOCC2)cc1NS(=O)(=O)c1cn(Cc2ccccc2)c(C)n1
8.20

State its pIC50 for this molecule: CS(=O)(=O)Nc1cc(-c2ccc3ccncc3c2)cnc1Cl
6.80

More entries:
State its pIC50 for this molecule: CS(=O)(=O)Nc1cc(-c2ccc3cn[nH]c3c2)cnc1Cl
6.40

State its pIC50 for this molecule: CS(=O)(=O)Nc1cc(-c2cnc(N)nc2)cnc1Cl
6.90

State its pIC50 for this molecule: CS(=O)(=O)Nc1cc(-c2ccncc2)cnc1Cl
6.60

State its pIC50 for this molecule: c1cc(-c2ccc3cn[nH]c3c2)c2cc[nH]c2c1
5.10

State its pIC50 for this molecule: c1cc(-c2ccncc2)c2cc[nH]c2c1
4.10

State its pIC50 for this molecule: O=S(=O)(Nc1cc(-c2ccccc2)cnc1Cl)c1ccccc1
6.00

State its pIC50 for this molecule: c1cc(-c2nnc(CN3CCOCC3)o2)c2cn[nH]c2c1
3.80

State its pIC50 for this molecule: O=S(=O)(Nc1cc(C2=CCOCC2)cnc1Cl)c1ccccc1
8.00

State its pIC50 for this molecule: c1cc(-c2ccc3ccncc3c2)c2cc[nH]c2c1
5.40

---

Molecular target: UniProt:Q12809
Assay: Inhibition of human ERG expressed in CHO cells after 75 mins by fluorescence polarization assay
pIC50: −log10 of the molar value.
Recorded metric: pIC50

Identify measured pIC50 obtained with UniProt:Q12809 for COc1ncc(C2=CCOCC2)cc1NS(=O)(=O)c1cn(Cc2ccccc2)c(C)n1 .
< 4.30

---

Consider the following compounds and their measured pIC50 readings.
Biological target: Phosphatidylinositol 4,5-bisphosphate 3-kinase catalytic subunit alpha isoform (Homo sapiens, UniProt P42336)
Sequence (P42336 whole entry, canonical isoform): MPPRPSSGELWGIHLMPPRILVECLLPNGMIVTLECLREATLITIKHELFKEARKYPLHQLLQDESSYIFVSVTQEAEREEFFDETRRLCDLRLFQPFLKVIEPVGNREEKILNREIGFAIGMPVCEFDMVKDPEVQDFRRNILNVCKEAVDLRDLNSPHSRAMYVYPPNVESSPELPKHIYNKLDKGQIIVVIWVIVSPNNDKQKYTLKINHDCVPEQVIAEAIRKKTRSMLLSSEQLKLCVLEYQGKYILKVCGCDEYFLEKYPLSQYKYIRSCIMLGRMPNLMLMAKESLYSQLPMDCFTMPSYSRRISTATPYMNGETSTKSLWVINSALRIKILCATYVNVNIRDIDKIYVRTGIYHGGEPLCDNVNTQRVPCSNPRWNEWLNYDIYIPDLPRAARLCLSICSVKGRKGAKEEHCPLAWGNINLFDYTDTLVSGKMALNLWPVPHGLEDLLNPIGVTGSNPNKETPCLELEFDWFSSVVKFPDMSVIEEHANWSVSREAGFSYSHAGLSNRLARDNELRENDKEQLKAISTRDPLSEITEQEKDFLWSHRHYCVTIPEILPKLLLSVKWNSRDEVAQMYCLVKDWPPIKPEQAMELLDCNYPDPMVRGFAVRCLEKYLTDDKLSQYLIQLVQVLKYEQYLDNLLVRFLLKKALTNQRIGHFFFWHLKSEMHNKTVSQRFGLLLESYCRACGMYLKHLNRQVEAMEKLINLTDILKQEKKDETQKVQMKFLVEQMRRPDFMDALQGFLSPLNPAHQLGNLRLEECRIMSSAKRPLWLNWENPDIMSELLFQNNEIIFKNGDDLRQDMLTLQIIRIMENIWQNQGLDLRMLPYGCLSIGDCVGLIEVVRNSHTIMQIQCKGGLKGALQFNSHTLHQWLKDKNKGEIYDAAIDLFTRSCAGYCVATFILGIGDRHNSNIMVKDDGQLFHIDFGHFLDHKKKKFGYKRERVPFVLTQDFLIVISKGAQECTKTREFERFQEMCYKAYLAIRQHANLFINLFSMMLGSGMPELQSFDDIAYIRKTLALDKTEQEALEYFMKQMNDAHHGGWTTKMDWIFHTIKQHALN
Assay: Inhibition of PI3Kalpha (unknown origin) using PIP2 as substrate preincubated for 15 mins followed by substrate addition measured after 60 mins by HTRF method
A value of pIC50 is the negative decimal logarithm of a concentration given in moles per litre.

Illustrative cases are given below, each with its answer.
State its pIC50 for this compound: COc1ncc(C2=CCOCC2)cc1NS(=O)(=O)c1cn(Cc2ccccc2)c(C)n1
6.20

State its pIC50 for this compound: O=S(=O)(Nc1cc(-c2ccccc2)cnc1Cl)c1ccccc1
4.50

More entries:
State its pIC50 for this compound: O=S(=O)(Nc1cc(C2=CCOCC2)cnc1Cl)c1ccccc1
6.30

State its pIC50 for this compound: CS(=O)(=O)Nc1cc(-c2ccc3ccncc3c2)cnc1Cl
5.60

---

Target: Mitogen-activated protein kinase kinase kinase 5 (Homo sapiens, UniProt Q99683)
Sequence (Q99683 whole entry): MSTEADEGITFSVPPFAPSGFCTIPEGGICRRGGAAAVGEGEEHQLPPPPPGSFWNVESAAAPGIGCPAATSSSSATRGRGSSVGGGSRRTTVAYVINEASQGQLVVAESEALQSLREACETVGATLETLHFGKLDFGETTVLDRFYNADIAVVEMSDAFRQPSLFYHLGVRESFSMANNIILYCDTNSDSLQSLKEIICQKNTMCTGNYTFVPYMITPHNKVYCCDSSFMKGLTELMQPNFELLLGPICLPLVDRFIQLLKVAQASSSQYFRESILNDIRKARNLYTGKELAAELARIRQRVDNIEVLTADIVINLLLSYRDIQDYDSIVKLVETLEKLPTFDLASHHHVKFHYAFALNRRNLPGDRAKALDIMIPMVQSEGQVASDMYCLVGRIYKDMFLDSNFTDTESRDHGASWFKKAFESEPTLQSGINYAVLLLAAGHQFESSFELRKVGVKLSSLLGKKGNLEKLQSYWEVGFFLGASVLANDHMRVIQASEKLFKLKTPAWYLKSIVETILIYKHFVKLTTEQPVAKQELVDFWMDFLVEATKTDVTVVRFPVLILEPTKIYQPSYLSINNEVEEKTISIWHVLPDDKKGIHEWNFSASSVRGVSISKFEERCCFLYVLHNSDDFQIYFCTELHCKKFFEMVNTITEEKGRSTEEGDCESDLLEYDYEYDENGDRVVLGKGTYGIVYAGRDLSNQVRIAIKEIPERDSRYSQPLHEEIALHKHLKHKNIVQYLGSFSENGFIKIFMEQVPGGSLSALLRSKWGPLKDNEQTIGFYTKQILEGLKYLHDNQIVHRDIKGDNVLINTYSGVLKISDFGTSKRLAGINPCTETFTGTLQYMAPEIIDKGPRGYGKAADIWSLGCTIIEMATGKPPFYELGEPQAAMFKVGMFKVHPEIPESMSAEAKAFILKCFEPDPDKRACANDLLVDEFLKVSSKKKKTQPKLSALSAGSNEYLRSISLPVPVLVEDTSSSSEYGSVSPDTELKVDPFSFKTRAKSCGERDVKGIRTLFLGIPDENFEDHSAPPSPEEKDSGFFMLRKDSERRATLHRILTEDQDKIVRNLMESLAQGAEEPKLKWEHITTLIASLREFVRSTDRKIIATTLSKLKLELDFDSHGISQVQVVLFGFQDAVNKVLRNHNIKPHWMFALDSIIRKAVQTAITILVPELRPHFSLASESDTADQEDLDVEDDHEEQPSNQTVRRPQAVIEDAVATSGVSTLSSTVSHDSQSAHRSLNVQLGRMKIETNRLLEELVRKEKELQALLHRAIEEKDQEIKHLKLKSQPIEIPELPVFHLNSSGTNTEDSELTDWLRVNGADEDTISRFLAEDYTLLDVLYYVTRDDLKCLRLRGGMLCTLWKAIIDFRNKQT
Assay: Inhibition of ASK1 (unknown origin)
Recorded metric: IC50

State its IC50 for this compound: CS(=O)(=O)Nc1cc(-c2ccncc2)cnc1Cl
> 10 µM

---

Target: Phosphatidylinositol 4,5-bisphosphate 3-kinase catalytic subunit alpha isoform (Homo sapiens)
Assay: Inhibition of PI3Kalpha (unknown origin) using PIP2 as substrate preincubated for 15 mins followed by substrate addition measured after 60 mins by HTRF method
Consider the following molecules and their measured pIC50 readings.
A value of pIC50 is the negative decimal logarithm of a concentration given in moles per litre.

State its pIC50 for this molecule: CS(=O)(=O)Nc1cc(-c2ccc3cn[nH]c3c2)cnc1Cl
5.20

State its pIC50 for this molecule: CS(=O)(=O)Nc1cc(-c2cnc(N)nc2)cnc1Cl
5.80

State its pIC50 for this molecule: CS(=O)(=O)Nc1cc(-c2ccncc2)cnc1Cl
5.20

More entries:
State its pIC50 for this molecule: COc1ncc(-c2cc(-c3ncc(CN4C[C@@H](C)O[C@@H](C)C4)o3)c3cn[nH]c3c2)cc1NS(C)(=O)=O
6.40

---

Biological target: UniProtKB P49841
Sequence (P49841 whole entry): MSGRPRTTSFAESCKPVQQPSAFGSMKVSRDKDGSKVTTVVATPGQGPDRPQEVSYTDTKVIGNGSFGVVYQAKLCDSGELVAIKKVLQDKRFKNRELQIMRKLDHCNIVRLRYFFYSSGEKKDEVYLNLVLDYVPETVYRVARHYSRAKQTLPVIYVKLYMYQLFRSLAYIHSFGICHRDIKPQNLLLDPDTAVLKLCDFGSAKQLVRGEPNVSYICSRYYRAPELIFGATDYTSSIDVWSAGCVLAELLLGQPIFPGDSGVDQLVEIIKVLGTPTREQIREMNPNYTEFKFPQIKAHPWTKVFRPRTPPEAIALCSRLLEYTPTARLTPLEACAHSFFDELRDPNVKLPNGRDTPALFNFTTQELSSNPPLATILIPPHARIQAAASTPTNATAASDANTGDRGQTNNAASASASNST
Recorded metric: IC50

Identify measured IC50 obtained with UniProtKB P49841 for CS(=O)(=O)Nc1cc(-c2ccncc2)cnc1Cl .
> 10 µM

---

Biological target: Phosphatidylinositol 4,5-bisphosphate 3-kinase catalytic subunit beta isoform (Homo sapiens, UniProt P42338)
Sequence (P42338 whole entry, canonical isoform): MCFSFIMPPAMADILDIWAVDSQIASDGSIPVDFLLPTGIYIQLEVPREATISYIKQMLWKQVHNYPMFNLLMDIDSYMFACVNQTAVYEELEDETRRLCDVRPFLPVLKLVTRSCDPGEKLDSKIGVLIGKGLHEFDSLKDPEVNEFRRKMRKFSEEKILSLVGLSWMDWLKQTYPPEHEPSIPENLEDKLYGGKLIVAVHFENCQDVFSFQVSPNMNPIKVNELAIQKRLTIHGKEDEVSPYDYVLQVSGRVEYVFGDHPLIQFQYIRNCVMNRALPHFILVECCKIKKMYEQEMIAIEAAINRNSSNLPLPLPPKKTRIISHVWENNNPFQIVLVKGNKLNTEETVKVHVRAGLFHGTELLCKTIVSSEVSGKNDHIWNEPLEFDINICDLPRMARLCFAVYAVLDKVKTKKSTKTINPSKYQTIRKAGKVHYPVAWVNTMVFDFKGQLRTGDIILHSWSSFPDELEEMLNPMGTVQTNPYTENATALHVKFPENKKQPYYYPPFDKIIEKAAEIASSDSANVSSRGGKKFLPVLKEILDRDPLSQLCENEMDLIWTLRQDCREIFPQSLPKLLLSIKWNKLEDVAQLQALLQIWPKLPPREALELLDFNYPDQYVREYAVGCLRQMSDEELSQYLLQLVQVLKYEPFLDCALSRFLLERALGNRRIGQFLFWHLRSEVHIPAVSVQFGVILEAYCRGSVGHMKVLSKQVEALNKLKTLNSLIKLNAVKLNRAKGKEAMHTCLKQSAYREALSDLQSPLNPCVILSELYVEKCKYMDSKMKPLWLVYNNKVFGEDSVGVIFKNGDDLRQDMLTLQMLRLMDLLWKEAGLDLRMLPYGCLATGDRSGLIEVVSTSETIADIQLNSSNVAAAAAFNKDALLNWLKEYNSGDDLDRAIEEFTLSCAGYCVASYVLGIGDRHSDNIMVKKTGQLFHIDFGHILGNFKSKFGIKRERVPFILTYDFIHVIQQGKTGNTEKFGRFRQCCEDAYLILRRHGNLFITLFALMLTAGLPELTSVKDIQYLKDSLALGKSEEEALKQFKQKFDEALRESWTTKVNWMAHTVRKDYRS
Experiment: Inhibition of PI3Kbeta (unknown origin) using PIP2 as substrate preincubated for 15 mins followed by substrate addition measured after 60 mins by HTRF method
Recorded metric: IC50 (nM)
Field format: number, assumed nM, no unit text.

Illustrative cases are given below, each with its answer.
State its IC50 for this compound: c1cc(-c2ccc3ccncc3c2)c2cc[nH]c2c1
15800

State its IC50 for this compound: CS(=O)(=O)Nc1cc(-c2cnc(N)nc2)cnc1Cl
158

State its IC50 for this compound: CS(=O)(=O)Nc1cc(-c2ccncc2)cnc1Cl
794

State its IC50 for this compound: COc1ncc(C2=CCOCC2)cc1NS(=O)(=O)c1cn(Cc2ccccc2)c(C)n1
1000

State its IC50 for this compound: CS(=O)(=O)Nc1cc(-c2ccc3ccncc3c2)cnc1Cl
2510

State its IC50 for this compound: CS(=O)(=O)Nc1cc(-c2ccc3cn[nH]c3c2)cnc1Cl
3980

State its IC50 for this compound: c1cc(-c2ccc3cn[nH]c3c2)c2cc[nH]c2c1
25100

State its IC50 for this compound: O=S(=O)(Nc1cc(C2=CCOCC2)cnc1Cl)c1ccccc1
126

State its IC50 for this compound: O=S(=O)(Nc1cc(-c2ccccc2)cnc1Cl)c1ccccc1
15800

More entries:
State its IC50 for this compound: COc1ncc(-c2cc(-c3ncc(CN4C[C@@H](C)O[C@@H](C)C4)o3)c3cn[nH]c3c2)cc1NS(C)(=O)=O
2510

---

Target: serum albumin (Homo sapiens, UniProt P02768)
Sequence (P02768 whole entry): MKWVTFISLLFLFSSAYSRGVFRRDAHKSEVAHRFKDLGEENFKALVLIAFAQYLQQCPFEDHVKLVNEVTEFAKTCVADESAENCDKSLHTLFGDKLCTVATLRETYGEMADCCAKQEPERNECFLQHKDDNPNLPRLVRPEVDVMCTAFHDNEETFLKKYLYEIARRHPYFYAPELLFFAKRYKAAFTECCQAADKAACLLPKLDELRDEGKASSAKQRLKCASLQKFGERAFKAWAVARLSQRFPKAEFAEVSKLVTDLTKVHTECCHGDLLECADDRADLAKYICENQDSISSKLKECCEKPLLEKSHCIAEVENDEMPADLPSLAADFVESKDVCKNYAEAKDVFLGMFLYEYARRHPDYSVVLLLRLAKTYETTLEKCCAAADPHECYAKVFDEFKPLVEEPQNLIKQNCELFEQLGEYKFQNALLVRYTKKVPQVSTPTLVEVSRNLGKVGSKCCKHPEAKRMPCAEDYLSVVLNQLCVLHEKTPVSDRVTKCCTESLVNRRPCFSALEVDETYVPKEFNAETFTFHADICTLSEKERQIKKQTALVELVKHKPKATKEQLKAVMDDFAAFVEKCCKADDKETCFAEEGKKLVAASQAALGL
Test: Binding affinity to human serum albumin by HPLC analysis
Format: ADME
Settings: read-out: PB (converted)
Recorded metric: fraction unbound
Give a plain numeric answer without units written out.

State its fraction unbound for this compound: COc1ncc(C2=CCOCC2)cc1NS(=O)(=O)c1cn(Cc2ccccc2)c(C)n1
0.101

---

Biological target: Mitogen-activated protein kinase 10 (Homo sapiens, UniProt P53779)
Sequence (P53779 whole entry): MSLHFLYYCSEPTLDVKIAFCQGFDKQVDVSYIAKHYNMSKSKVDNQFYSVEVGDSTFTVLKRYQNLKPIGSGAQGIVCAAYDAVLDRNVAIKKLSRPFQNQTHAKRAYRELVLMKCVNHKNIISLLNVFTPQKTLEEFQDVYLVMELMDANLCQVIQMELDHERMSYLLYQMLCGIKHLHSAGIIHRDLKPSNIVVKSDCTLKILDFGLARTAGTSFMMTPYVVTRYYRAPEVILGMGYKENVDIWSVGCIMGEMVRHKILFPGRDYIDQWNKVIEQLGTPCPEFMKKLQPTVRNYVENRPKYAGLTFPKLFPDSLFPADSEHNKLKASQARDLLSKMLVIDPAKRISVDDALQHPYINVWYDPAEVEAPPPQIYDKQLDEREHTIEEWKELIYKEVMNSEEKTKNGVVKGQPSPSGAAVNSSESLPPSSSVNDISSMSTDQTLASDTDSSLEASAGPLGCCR
Test: Inhibition of JNK3 (unknown origin)
Recorded metric: IC50

State its IC50 for this compound: CS(=O)(=O)Nc1cc(-c2ccncc2)cnc1Cl
> 10 µM

---

Assay: Kinetic solubility of the compound in phosphate buffer saline at pH 7.4 after 1 hr by CLND method
Type: physicochemical
Conditions: phosphate buffered saline, read-out: Kinetic_solubility
Recorded metric: solubility kinetic at 1 h (µg/mL)
Field format: number, assumed µg/mL, no unit text.

State its solubility kinetic at 1 h for this compound: COc1ncc(C2=CCOCC2)cc1NS(=O)(=O)c1cn(Cc2ccccc2)c(C)n1
12
